tested on: L1210 leukemia ip in BDF1 mice, survival T/C; experiment: NCI In Vivo Anticancer Drug Screen. Data for tumor model L1210 Leukemia (intraperitoneal) in B6D2F1 (BDF1) mice; details: endpoint: mean survival time; dose: 200.0 mg/kg/injection; schedule: Q01DX009 (ip); vehicle: saline with Tween-80; higher = longer survival
Toxic doses and inconclusive results are not listed. Peptide text beside a SMILES is read from it. * marks the point of attachment. Boc = CC(C)(C)OC(=O)*
This section presents compounds with their documented T/C values.
measure-name: T/C

compound	reported
Nc1nc(N)n(Cc2ccc3c(c2)OCO3)n1	87 % of control
COC(=O)C1c2ccccc2-c2ccccc21	96 % of control
CCCCCCCCCCCCC/C=N/Nc1ccc([N+](=O)[O-])cc1[N+](=O)[O-]	93 % of control
CCC1(c2ccccc2)C(=O)NC(=O)N(Cc2ccccc2)C1=O (stereo not drawn)	98 % of control
CC1(C)COC(CC2CCCCC2)=N1	96 % of control
CCCCC(O)CCC (stereo not drawn)	95 % of control
CC1SC(=S)N(c2ccccc2)C1=O (stereo not drawn)	106 % of control
O=C(O)CN1C(=O)CSC1=S	91 % of control
CC(C)CCCBr	100 % of control
COc1ccc(C(=O)Nc2cccc(C(F)(F)F)c2)cc1	121 % of control
c1ccc(Nc2ccc3ccccc3c2)cc1	89 % of control
COc1cc(/C=C/C(C)=O)ccc1O	98 % of control
CCN(CC)CCN1C(=O)CN=C(c2ccc[nH]2)c2cc(Cl)ccc21	106 % of control
COC(=O)CNC(=O)C1CCCN1C(=O)C(Cc1c[nH]c2ccccc12)NC(=O)OC(C)(C)C (stereo not drawn) (Boc-Trp-Pro-Gly-OMe; configuration not given here)	100 % of control
CC(C)CC(Br)C(=O)NCC(=O)O (stereo not drawn)	91 % of control
CCCCCC/C(C)=N/O	103 % of control
COc1ccc(/C=N/NC(=O)CNC(=O)c2ccc(Cl)cc2Cl)cc1OC	86 % of control
COC1(c2cccs2)OC1(C)C (stereo not drawn)	94 % of control
O=C1Nc2ccccc2/C1=N/N=C/c1cc(Cl)cc(Cl)c1O	92 % of control
Cc1ccccc1N1OS(=O)(=O)CC1(C#N)c1ccccc1 (stereo not drawn)	102 % of control
c1cnc2c(c1)CCCC2	86 % of control
Cc1cc(C)c(C)c(OC(=O)Nc2ccc(Cl)cc2C(F)(F)F)c1	106 % of control
Cc1cc(OC(=O)Nc2cccc(Cl)c2)ccc1Cl	93 % of control
COC(=O)C(CSCSC)NC(=O)/C=C/c1ccccc1C (stereo not drawn)	101 % of control
CCOC(=O)C(=CNc1ccc(OC)cc1[N+](=O)[O-])C(=O)OCC	105 % of control
ClC1=CC2CCC1C21CC1 (stereo not drawn)	97 % of control
CCOc1ccc(/C=N/NC(=O)C(O)c2ccccc2)cc1OC (stereo not drawn)	92 % of control
CCn1c(C)cc(O)cc1=O	92 % of control
O=C(Nc1ccccc1C(=O)c1ccccc1)c1ccc(Cl)cc1Cl	87 % of control
O=[N+]([O-])c1ccc(N/N=C(\CBr)c2ccccc2)c([N+](=O)[O-])c1	95 % of control
O=C(O)C1Cc2c([nH]c3ccccc23)C(c2ccccc2)N1 (stereo not drawn)	94 % of control
Cc1ccc(NS(=O)(=O)c2ccccc2)cc1	101 % of control
CCOC(=O)c1cnc(SC)nc1NCc1ccco1	97 % of control
